- Tested on: DRB1*15:01, DRB1*03:01 and DRB1*07:01
- protocol: Experimental immunogenicity score: relative HLA binding combined across alleles, weighted by allele frequency
- Set-up: species or system human; key: allele-frequency-weighted sum of binding, % of control peptide signal
- conditionParameters: after 24 hours (H24); per peptide against wild-type counterpart
recordedMetric: Difference to WT (Experimental Score)
Lab note: write the figure by itself, no unit.

Example sequences with recorded Difference to WT (Experimental Score):
polymersequence="TTRYLRIHPQSWEHQ [Design M-11, peptide covering L2321T, V2333E]" measvalue=-5.886
polymersequence="LTRLLRIHPQSWEHQ [Design M-7, peptide covering Y2324L, V2333E]" measvalue=-10.436
polymersequence="FTRYLRIHPQSWVHH [Design M-13, peptide covering L2321F, Q2335H]" measvalue=-7.821

Dear colleague, I am looking for the recorded Difference to WT (Experimental Score) of the following sequence: YTRYLRIHPQSWEHQ [Design M-12, peptide covering L2321Y, V2333E]
-7.303

Try this sequence next: VNSLDPPLTTRYLRI [Design M-2, peptide covering L2321T]
-0.054

Try this sequence next: RIHPQSWVHHIALRM [Design M-4, peptide covering Q2335H]
2.595

Try this sequence next: LRIHPQSWEHQIALRM [Design M-6, peptide covering V2333E]
-3.607

Try this sequence next: LRIHPQSWVHHIALRM [Design M-5, peptide covering Q2335H]
0.870
